The measured values listed here are drawn from patent US20240417469A1.

What % of SP34 was measured for each of the following?
- TARGET_OR_SYSTEM: human CD3 on cells (human PBMC; Jurkat TCR/CD3 NFAT reporter cells) (human, UniProt P07766 23-207; P04234 22-171; P09693 23-182)
- Sequence (P07766 23-207, chain 1 of 3): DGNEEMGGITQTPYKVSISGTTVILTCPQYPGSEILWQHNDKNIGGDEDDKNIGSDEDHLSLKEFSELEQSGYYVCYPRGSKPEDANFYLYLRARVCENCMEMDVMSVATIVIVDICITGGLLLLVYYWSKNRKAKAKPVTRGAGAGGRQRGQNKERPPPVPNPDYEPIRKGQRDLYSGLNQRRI
- Sequence (P04234 22-171, chain 2 of 3): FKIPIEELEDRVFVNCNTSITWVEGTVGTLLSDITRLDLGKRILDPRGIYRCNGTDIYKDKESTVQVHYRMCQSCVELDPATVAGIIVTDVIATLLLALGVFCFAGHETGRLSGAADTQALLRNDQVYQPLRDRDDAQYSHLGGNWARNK
- Sequence (P09693 23-182, chain 3 of 3): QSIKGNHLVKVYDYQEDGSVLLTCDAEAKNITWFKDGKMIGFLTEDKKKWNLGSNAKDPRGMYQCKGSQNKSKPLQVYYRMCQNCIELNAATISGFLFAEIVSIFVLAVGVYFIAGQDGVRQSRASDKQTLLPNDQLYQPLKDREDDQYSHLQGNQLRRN
- METHOD_DESCRIPTION: cell-based or functional assay
Numbers only, in %.

Briefly, % of SP34 measured for Hu155A9B1-11 (antibody, V domains shown, humanized mAb) VH: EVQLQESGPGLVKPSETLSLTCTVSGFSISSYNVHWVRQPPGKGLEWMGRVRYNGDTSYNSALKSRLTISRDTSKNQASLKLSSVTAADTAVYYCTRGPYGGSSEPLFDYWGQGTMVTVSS VL: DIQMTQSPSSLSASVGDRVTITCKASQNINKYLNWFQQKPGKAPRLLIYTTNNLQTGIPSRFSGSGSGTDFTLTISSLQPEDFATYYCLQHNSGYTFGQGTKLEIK : 78.4

Briefly, % of SP34 measured for Hu155A9B1-18 (antibody, V domains shown, humanized mAb) VH: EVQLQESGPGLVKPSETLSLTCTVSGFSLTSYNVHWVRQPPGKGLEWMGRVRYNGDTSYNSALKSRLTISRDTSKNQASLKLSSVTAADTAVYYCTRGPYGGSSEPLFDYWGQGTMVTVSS VL: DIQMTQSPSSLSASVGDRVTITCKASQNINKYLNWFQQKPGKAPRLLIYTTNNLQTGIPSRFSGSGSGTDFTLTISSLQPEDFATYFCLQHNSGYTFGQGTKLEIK : 74

Further cases:
Briefly, % of SP34 measured for Hu155A9B1-4 (antibody, V domains shown, humanized mAb) VH: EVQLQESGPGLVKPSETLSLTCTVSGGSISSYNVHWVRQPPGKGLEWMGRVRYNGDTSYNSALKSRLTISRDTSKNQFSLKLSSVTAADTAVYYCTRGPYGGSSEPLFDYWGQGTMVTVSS VL: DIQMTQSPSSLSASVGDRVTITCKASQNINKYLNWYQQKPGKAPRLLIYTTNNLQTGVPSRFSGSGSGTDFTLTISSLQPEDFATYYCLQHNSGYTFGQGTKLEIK : 14.8
